# Tested on: Topoisomerase II
# Protocol: topoisomerase II inhibition: drug-induced DNA cleavage in presence of HL-60 extract or purified top 2
# Type: biochemical
# Condition summary: DNA cleavage assays
Metric name: top 2 inhibition / top 2 activity (in words)

Compound: COc1cc([C@@H]2C3=C(C[C@H]4COC(=O)N42)c2cccc4cccc3c24)cc(OC)c1O (relative stereo)
Assayed target: Topoisomerase II
Result: inactive
--
Compound: COc1cc([C@H]2c3[nH]c4ccccc4c3C[C@H]3COC(=O)N32)cc(OC)c1O
Assayed target: Topoisomerase II
Result: inactive
--
Compound: COc1cc([C@@H]2c3[nH]c4ccccc4c3C[C@@H]3COC(=O)N32)cc(OC)c1O
Assayed target: Topoisomerase II
Result: inactive
